tested on: SK-MEL-28 melanoma; assay: NCI-60 one-dose screen, 48 h; conditions: 10 µM unless noted
Compounds without any hit were thinned out: in the full panel of roughly 83,000, 20% have a hit. The source made the active and inactive calls. The calls were made as follows: active = growth percent below 10; inactive = the rest.
Return exactly one item of True = active, False = inactive

Consider the worked cases shown below.
[[record]]
molecule = "COCCn1cc(-c2nc(-c3cc4cccnc4n3CCOC)cs2)c2cc(OC)ccc21"
system_under_test = "SK-MEL-28 melanoma"
assigned_class = "False"

[[record]]
molecule = "c1cnc2[nH]cc(-c3csc(-c4cn(CCCN5CCOCC5)c5ccccc45)n3)c2c1"
system_under_test = "SK-MEL-28 melanoma"
assigned_class = "False"

[[record]]
molecule = "CC(C)(C)n1cc(-c2ccnc(NCCCNS(=O)(=O)c3ccc(F)cc3)c2)c(-c2cccc(F)c2)n1"
system_under_test = "SK-MEL-28 melanoma"
assigned_class = "False"

[[record]]
molecule = "OCc1cccc(-c2ccc3ncc(-c4nc(NC5CC5)ncc4F)n3c2)c1"
system_under_test = "SK-MEL-28 melanoma"
assigned_class = "True"

[[record]]
molecule = "CN1CCN(c2ccc(NC(=O)c3nc4ccc5[nH]ncc5c4c4c3CCCC4)cc2C(F)(F)F)CC1"
system_under_test = "SK-MEL-28 melanoma"
assigned_class = "False"

[[record]]
molecule = "Cc1nnc(-n2c(O)cc(=O)n(-c3ccccc3)c2=S)nc1/C=C/c1ccc(N(C)C)cc1"
system_under_test = "SK-MEL-28 melanoma"
assigned_class = "False"

[[record]]
molecule = "CC(C)OC(=O)c1ccc2[nH]c(O)c(C(=Nc3ccc(N(C)C(=O)CN4CCN(C)CC4)cc3)c3ccccc3)c2c1"
system_under_test = "SK-MEL-28 melanoma"
assigned_class = "True"

[[record]]
molecule = "O=C1c2cccc(NCCN=Cc3cc(O)ccc3O)c2C(=O)c2c(NCCN=Cc3cc(O)ccc3O)cccc21"
system_under_test = "SK-MEL-28 melanoma"
assigned_class = "True"


Look up the recorded call for COc1ccc(OC)c(-c2c(C#N)c(-c3cccs3)nc3c2c(-c2ccccc2)nn3-c2ccccc2)c1 in this test. False

Look up the recorded call for COC(=O)CCC(=O)C(=O)OC in this test. True

Look up the recorded call for CCn1cc(C(=O)N/N=C/c2cccs2)c(=O)c2cc(F)c(N3CCNC(C)C3)c(F)c21 (stereo not drawn) in this test. False

Look up the recorded call for O=C(CSc1nc2ccc([N+](=O)[O-])cc2[nH]1)Nc1ccc(F)cc1 in this test. False

meta.source: PubChem BioAssay (NCI)
